From: patent US20240360134A1

Task for the reader: assign each of the following compounds its reported IC50.
target: His6-TEV-PDGFRβ (557-1016) (Homo sapiens (Human)); assay: PDGFRβ HTRF Assay; format: biochemical; settings: 800 μM ATP, 0.5 μM TK-substrate biotin peptide, 30 min pre-incubation, 3 hours reaction; read-out: PDGFR HTRF IC50
Sequence (P09619 whole entry, looked up): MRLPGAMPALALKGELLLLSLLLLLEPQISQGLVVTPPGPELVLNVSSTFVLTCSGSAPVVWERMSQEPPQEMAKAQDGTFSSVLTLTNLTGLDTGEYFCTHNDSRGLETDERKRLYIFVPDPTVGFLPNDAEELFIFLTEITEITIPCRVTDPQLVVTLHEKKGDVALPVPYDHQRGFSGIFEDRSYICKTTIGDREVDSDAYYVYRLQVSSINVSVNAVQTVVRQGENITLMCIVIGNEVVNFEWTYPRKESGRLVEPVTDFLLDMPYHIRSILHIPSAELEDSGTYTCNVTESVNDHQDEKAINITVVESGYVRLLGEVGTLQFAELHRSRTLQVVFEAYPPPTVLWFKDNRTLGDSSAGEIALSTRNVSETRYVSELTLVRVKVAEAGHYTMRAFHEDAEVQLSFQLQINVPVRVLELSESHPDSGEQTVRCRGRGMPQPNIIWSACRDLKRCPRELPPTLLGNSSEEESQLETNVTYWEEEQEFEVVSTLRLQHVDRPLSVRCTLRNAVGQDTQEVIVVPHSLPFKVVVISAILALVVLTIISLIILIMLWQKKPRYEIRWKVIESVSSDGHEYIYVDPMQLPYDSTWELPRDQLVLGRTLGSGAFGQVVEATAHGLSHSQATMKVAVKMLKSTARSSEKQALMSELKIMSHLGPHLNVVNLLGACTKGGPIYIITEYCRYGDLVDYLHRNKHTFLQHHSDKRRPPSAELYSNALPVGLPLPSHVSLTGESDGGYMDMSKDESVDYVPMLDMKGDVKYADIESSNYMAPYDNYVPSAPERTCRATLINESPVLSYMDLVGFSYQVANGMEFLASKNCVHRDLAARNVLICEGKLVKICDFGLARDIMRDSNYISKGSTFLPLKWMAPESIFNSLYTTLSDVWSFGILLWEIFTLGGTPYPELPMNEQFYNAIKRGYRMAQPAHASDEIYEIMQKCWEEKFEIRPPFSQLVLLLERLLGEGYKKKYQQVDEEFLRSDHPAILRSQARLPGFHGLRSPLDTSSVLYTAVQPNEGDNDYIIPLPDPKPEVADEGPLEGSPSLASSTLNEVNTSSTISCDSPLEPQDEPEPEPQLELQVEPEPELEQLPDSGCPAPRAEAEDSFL
Answers are plain numbers, in nM.

                                   compound  measurement_units  recorded_value
0  Cc1ncc(C(=O)NCCN2CC(C)CC(C)C2)cc1Nc1nn(C)c2nc(Nc3cnn(C)c3)ncc12 (stereo not shown)                 nM            0.29
1  Cc1ncc(NC(=O)CN2CCC[C@@H]2C)cc1Nc1nn(C)c2nc(Nc3ccnn3C)ncc12                 nM             1.2
2  Cc1ncc(C(=O)NCCN2C[C@H](C)O[C@@H](C)C2)cc1Nc1nn(C)c2nc(Nc3cncnc3)ncc12                 nM            0.88
3  Cc1ncc(C(=O)NCCN2[C@H](C)COC[C@H]2C)cc1Nc1nn(C)c2nc(Nc3cnn(C)c3)ncc12 (relative stereo)                 nM            0.33
4  Cc1nn(C)cc1Nc1ncc2c(Nc3cc(C(=O)NCCN4CCC5(CC5)C4)cnc3C)nn(C)c2n1                 nM            1.41
5  COC1CCN(CC(=O)Nc2cnc(C)c(Nc3nn(C)c4nc(Nc5cnn(C)c5)ncc34)c2)CC1                 nM            0.43

Qu. GET /values?readout=IC50&system=His6-TEV-PDGFRβ (557-1016) (Homo sapiens (Human))&item= Cc1ncc(C(=O)NCCN2C[C@H](C)O[C@@H](C)C2)cc1Nc1nn(C)c2nc(Nc3cnn(C)c3)ncc12 (relative stereo)
Ans. 0.69
